Recorded inhibition at 15 µM by entry
Target Under Test: HLA-C0102 (Homo sapiens, UniProt P10321, A176E/A330V/A35S/A97T/C350S/D114A/D33F/L171W/L180R/L218V/M285V/M309V/M331V/P208H/Q277E/Q291P/R121W/R243W/R30K/S123C/S140Y/S297R/T329A/T363A/V272M/V319A)
Run Description: Competitive peptide binding assay, CIR-C0102
Measurement Parameters: read-out: Inhibition % of Cy5-reference peptide binding
Peptide text beside a SMILES is read from it.
Value and unit, in that order.

[
  {
    "Compound": "CC(C)C[C@H](NC(=O)[C@H](C)NC(=O)[C@@H](NC(=O)[C@@H](N)CC(C)C)[C@@H](C)O)C(=O)N[C@@H](CCCNC(=N)N)C(=O)N[C@@H](CC(C)C)C(=O)N[C@@H](CS)C(=O)N[C@@H](C)C(=O)N[C@@H](Cc1ccc(O)cc1)C(=O)O [Epitope M51] (H-LTALRLCAY-OH; N-terminus and C-terminus assumed)",
    "inhibition at 15 µM": "77.6%"
  },
  {
    "Compound": "CSCC[C@H](NC(=O)[C@H](CO)NC(=O)[C@H](Cc1ccccc1)NC(=O)[C@H](Cc1c[nH]cn1)NC(=O)[C@H](CCCCN)NC(=O)[C@H](CCCNC(=N)N)NC(=O)[C@H](CC(C)C)NC(=O)[C@H](Cc1ccc(O)cc1)NC(=O)[C@H](C)NC(=O)[C@@H](N)Cc1ccc(O)cc1)C(=O)O [Epitope M26] (H-YAYLRKHFSM-OH; N-terminus and C-terminus assumed)",
    "inhibition at 15 µM": "33.9%"
  }
]

Now, please, on to the next compound.
Form field inhibition at 15 µM, entry CC[C@H](C)[C@H](NC(=O)[C@H](C)NC(=O)[C@H](CC(C)C)NC(=O)[C@@H](NC(=O)[C@@H](N)C(C)C)[C@@H](C)O)C(=O)N[C@@H](CC(C)C)C(=O)N[C@H](C(=O)N[C@@H](C)C(=O)N[C@@H](CC(C)C)C(=O)O)[C@@H](C)O [Epitope M3, VTLAILTAL] (H-VTLAILTAL-OH; N-terminus and C-terminus assumed) : 87.4%

###

Recorded pIC50 by entry
Target Under Test: HLA-B3501 (Homo sapiens, UniProt P01889, A329T/A93T/A95T/C349S/D201E/D98Y/E176V/E187L/E204Q/E69T/I218V/K202T/L119I/Q94N/R155S/R180L/S121R/S35A/S48A/T118I/V127L/V306I/V36M/Y140S/Y91F)
Run Description: Competitive peptide binding assay, CIR-B3501
Measurement Parameters: HMy2.CIR-B3501 cells, reference Cy5-[…], class from inhibition at 5 and 15 μM, flow cytometry MFI; read-out: Binding affinity with HLA-B3501
pIC50: −log10 of the molar value. Peptide text beside a SMILES is read from it.

[
  {
    "Compound": "CC(C)C[C@H](NC(=O)[C@H](Cc1c[nH]cn1)NC(=O)[C@H](Cc1ccccc1)NC(=O)[C@@H](NC(=O)[C@H](CC(=O)O)NC(=O)[C@H](C)NC(=O)[C@H](Cc1ccc(O)cc1)NC(=O)[C@H](CCC(=O)O)NC(=O)[C@@H](N)CCC(N)=O)C(C)C)C(=O)O [Epitope Y71] (H-QEYADVFHL-OH; N-terminus and C-terminus assumed)",
    "Measured Attribute": "pIC50",
    "Assay Value": "4.82 to 5.30"
  }
]

Now, please, on to the next compound.
Form field pIC50, entry CC[C@H](C)[C@H](NC(=O)[C@H](CCCNC(=N)N)NC(=O)[C@H](CC(C)C)NC(=O)[C@H](CCSC)NC(=O)[C@H](CC(N)=O)NC(=O)[C@@H]1CCCN1C(=O)[C@H](CCSC)NC(=O)[C@H](C)NC(=O)[C@@H](N)CCCNC(=N)N)C(=O)O [Epitope Y77] (H-RAMPNMLRI-OH; N-terminus and C-terminus assumed) : < 4.82
